Cited source: patent US20030068675

Molecular target: T1, ZFP SBS#1466 (synthetic)
T1 chain: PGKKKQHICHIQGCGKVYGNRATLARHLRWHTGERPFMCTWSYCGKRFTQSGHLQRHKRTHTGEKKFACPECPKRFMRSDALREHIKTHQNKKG
Assay: EMSA
Settings: tags: MBP fusion
measured-attribute: pKd
pKd is defined as minus the log10 of a concentration measured in mol/L.

Query: Fill in reported pKd for this entry: CTGGGAGTT (dsDNA) DNA 1: CTGGGAGTT DNA 2: AACTCCCAG
Reply: 10.77
